- methodSummary: Microsomal stability, mouse liver microsomes
- Format: in vitro ADME
- statedConditions: mouse, liver microsomes (pooled), pH 7.4; after 1 h of incubation at 37 °C; read-out: % remaining compound, mouse microsomes
outcomeMeasure: remaining at 1 h, 0.05 µM (%)

> print(dat)
                                   compound  unittext  recordedvalue
1  CC1=C[C@@H]2Cc3nc4cc(Cl)ccc4c(NCCCCC(=O)N4CCC(NC(=O)Nc5ccc(OC(F)(F)F)cc5)CC4)c3[C@H](C1)C2 [(−)-15]         %            0.4
2  O=C(Nc1ccc(OC(F)(F)F)cc1)NC1CCN(C(=O)CCCCNc2c3c(nc4cc(Cl)ccc24)CCCC3)CC1 [12c]         %              2
3  O=C(Nc1ccc(OC(F)(F)F)cc1)NC1CCN(C(=O)CCCNc2c3c(nc4cc(Cl)ccc24)CCCC3)CC1 [12b]         %              1
4  O=C(Nc1ccc(OC(F)(F)F)cc1)NC1CCN(C(=O)CCNc2c3c(nc4cc(Cl)ccc24)CCCC3)CC1 [12a]         %              1

###

- studyTarget: recombinant mouse sEH (Mus musculus)
- Sequence (P34914 whole entry): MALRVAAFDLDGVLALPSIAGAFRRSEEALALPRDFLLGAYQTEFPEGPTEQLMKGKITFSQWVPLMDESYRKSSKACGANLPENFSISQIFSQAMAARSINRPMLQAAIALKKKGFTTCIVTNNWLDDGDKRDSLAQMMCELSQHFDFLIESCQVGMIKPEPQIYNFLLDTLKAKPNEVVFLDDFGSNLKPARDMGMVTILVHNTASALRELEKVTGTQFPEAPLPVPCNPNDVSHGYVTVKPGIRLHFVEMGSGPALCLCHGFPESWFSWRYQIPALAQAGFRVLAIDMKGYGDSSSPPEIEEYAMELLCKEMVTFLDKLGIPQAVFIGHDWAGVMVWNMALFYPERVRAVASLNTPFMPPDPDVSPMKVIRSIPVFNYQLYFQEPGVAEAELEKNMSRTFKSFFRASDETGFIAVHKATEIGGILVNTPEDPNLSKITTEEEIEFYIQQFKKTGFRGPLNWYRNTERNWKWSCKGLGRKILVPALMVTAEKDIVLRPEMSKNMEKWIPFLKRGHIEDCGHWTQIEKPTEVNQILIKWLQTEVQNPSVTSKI
- statedConditions: read-out: msEH IC50, average of three replicates
outcomeMeasure: IC50

> print(dat)
                                   molecule                           studytarget  recordedvalue
1  CC1=C[C@H]2Cc3nc4cc(Cl)ccc4c(N)c3[C@@H](C1)C2 [(+)-3, (+)-huprine Y, reference compound]  recombinant mouse sEH (Mus musculus)        > 50 µM
2  CC1=C[C@@H]2Cc3nc4cc(Cl)ccc4c(N)c3[C@H](C1)C2 [(−)-3, (−)-huprine Y, reference compound]  recombinant mouse sEH (Mus musculus)        > 50 µM
3  Nc1c2c(nc3cc(Cl)ccc13)CCCC2 [compound 2, 6-chlorotacrine, reference compound]  recombinant mouse sEH (Mus musculus)        > 50 µM
